molecular target: XSmo ectodomain (Xenopus laevis); test: Circular dichroism; format: binding; settings: small molecule 25 μM; CD signal at 225 nm; protein alone Tm=62.1°C
Sequence (Q98SW5 35-189): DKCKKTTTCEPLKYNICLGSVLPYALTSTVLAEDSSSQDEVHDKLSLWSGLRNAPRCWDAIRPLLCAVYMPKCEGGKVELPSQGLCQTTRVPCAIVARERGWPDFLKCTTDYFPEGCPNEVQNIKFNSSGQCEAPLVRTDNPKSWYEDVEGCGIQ
measure: Melting temperature (Tm) of XSmo ectodomain (°C)

INSERT INTO assay_data (molecule, number) VALUES
  ('CC(C)CCC[C@@H](C)[C@H]1CC[C@H]2[C@@H]3CC=C4C[C@@H](O)CC[C@]4(C)[C@H]3CC[C@]12C', 65.3),
  ('CC(C)CCC[C@](C)(O)[C@H]1CC[C@H]2[C@@H]3CC=C4C[C@@H](O)CC[C@]4(C)[C@H]3CC[C@@]21C [20(S)-OHC, 20(S)-hydroxycholesterol]', 66.5),
  ('CC(C)CCC[C@@H](C)[C@H]1CC[C@H]2[C@@H]3CC[C@H]4C[C@@H](O)CC[C@]4(C)[C@H]3CC[C@]12C', 62.9),
  ('CC1=C2C[C@H]3[C@@H](CC=C4C[C@@H](O)CC[C@@]43C)[C@@H]2CC[C@]12O[C@@H]1C[C@H](C)CN[C@H]1[C@H]2C', 66.6);

# credit: paper PMC5035717
